Origin of measurements: ChEMBL document CHEMBL5030556

assay: Hemolytic activity against human erythrocytes at 200 uM incubated for 1 hr at 570 nm by spectrophotometry; assay type: ADME, tissue-based, Erythrocyte; conditions: read-out: Activity

compound	hemolysis at 1 h, 200 µM [%]
O=C(C1=C(O)C(=O)N(c2nnc(SCc3ccccc3)s2)C1c1ccccc1)c1cc2ccccc2o1 (stereo not drawn)	7.01
O=C(C1=C(O)C(=O)N(c2nnc(SCc3ccc(F)cc3)s2)C1c1cccc(O)c1)c1cc2ccccc2o1 (stereo not drawn)	3.83
O=C(C1=C(O)C(=O)N(c2nnc(SCc3ccccc3)s2)C1c1ccccc1F)c1cc2ccccc2o1 (stereo not drawn)	8.31
O=C(C1=C(O)C(=O)N(c2nnc(SCc3ccc(Cl)cc3)s2)C1c1cccc(O)c1)c1cc2ccccc2o1 (stereo not drawn)	7.81
CCOC(=O)c1c(CN2CCN(C)CC2)n(-c2ccccc2)c2ccc(OS(=O)(=O)c3ccc(C)cc3)cc12	28.2
O=C(O)COc1ccc(/C=C2/SC(=O)N(Cc3ccc(F)cc3)C2=O)cc1Br	22.7
COc1cc(C2C(C(=O)c3cc4ccccc4o3)=C(O)C(=O)N2c2nnc(SCc3ccccc3Cl)s2)ccc1O (stereo not drawn)	6.14
Cc1ccc(CSc2nnc(N3C(=O)C(O)=C(C(=O)c4cc5ccccc5o4)C3c3cccc(O)c3)s2)cc1 (stereo not drawn)	6.32
